tested on: MV-4-11 (carrying MLL-AF4); assay: Inhibition of proliferation of human tumor cells (Alamar Blue, 7 days), MV-4-11; format: cell-based; conditions: Homo sapiens, MV4-11, 168 h, MV-4-11 cells (carrying MLL-AF4), method calls the value GI50
readoutType: IC50 (nM)

compound=Cc1nc(F)c2c(-c3ccc(F)cc3C(=O)N3CCOC[C@H]3C)cc(C3CN([C@H](CCCN4CCC(F)CC4)C(C)C)C3)cn12 unitspec=nM observedmeasurement=1.1

1. Cc1nc(F)c2c(-c3ccc(F)cc3C(=O)N3CCOC[C@H]3C)cc(C3CN(C(CC[C@H]4CNCCO4)C(C)C)C3)cn12 (stereo partly drawn)
2. CCN(C(=O)c1cc(F)ccc1-c1cc(C2CN([C@@H](C)C3CCN(C(=O)CO)CC3)C2)cn2c(C)nc(F)c12)C(C)C
3. CC(=O)N1CCC(CN2CC(c3cc(-c4ccc(F)cc4C(=O)N4CCC[C@H]4C)c4c(F)nc(C)n4c3)C2)CC1
Prompt: Please give the order of these compounds when sorted by IC50, largest value leading. When ranking, write the labels in the order the request describes.
Completion: 3, 1, 2
(3: 29 nM, 1: 13 nM, 2: 1.5 nM)

---

target: Menin-MLL (Homo sapiens); construct: His-Menin (M1-L615 end); purchased BIORTUS BP9210; assay: Inhibitory activity against Menin-MLL binding (fluorescence polarization); details: Menin-MLL IC50, fluorescence polarization; 150 nM His-Menin, 15 nM FITC-MLL; 25°C for 60 min
Sequence (O00255 1-615 isoform O00255-1): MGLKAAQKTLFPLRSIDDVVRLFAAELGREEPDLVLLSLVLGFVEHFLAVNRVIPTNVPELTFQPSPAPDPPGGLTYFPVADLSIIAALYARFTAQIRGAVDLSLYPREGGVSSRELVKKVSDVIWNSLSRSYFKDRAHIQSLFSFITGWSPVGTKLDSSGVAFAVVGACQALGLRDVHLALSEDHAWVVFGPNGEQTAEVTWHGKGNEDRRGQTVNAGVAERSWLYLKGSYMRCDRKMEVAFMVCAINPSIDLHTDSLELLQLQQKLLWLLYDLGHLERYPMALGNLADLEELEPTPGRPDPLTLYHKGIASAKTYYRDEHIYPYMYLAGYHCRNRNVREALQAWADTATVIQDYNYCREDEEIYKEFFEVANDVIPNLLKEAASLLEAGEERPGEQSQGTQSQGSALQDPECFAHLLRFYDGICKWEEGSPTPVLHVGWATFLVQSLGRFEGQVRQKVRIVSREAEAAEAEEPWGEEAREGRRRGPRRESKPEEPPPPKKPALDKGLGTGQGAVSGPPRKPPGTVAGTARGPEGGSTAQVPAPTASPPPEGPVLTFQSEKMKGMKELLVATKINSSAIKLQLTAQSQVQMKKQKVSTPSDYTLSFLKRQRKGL
Let's look at some molecules and their measured IC50.
Return type: number; implicit unit nM.

molecule=CCN(C(=O)c1cc(F)ccc1-c1cc(C2CN(C[C@H]3CC[C@H](NS(=O)(=O)CC)CC3)C2)cn2c(C)ncc12)C(C)C readouttype=IC50 observedmeasurement=8.5
molecule=CCS(=O)(=O)N[C@H]1CC[C@H](CN2CCC(c3cc(-c4ccc(F)cc4C(=O)N(CC(F)F)C(C)C)c4cnccn34)CC2)CC1 readouttype=IC50 observedmeasurement=42
molecule="CCN(C(=O)c1cc(F)ccc1-c1cc(C2CN(C(=O)C3NC4CCC3CC4)C2)cn2c(C)nc(F)c12)C(C)C (stereo not drawn)" readouttype=IC50 observedmeasurement=4.5
molecule=CCS(=O)(=O)N[C@H]1CC[C@H](CN2CC[C@@H](c3cc(-c4ccc(F)cc4C(=O)N(CC(F)F)C(C)C)c4cnc(C)n4c3)C2)CC1 readouttype=IC50 observedmeasurement=6
molecule="CCN(C(=O)c1cc(F)ccc1-c1cc(C2(F)CCN(C[C@H]3CC[C@H](NS(=O)(=O)CC)CC3)C2)cn2c(C)ncc12)C(C)C (stereo partly drawn)" readouttype=IC50 observedmeasurement=28

# context switch: different molecule, same IC50
Reported IC50 (Menin-MLL (Homo sapiens)) for entry `CCN(C(=O)c1cc(F)ccc1-c1cc(N2CC3(CN(C[C@H]4CC[C@H](NS(=O)(=O)CC)CC4)C3)C2)cn2c(C)ncc12)C(C)C` is 173

---

molecular target: Menin-MLL (Homo sapiens); construct: His-Menin (M1-L615 end); purchased BIORTUS BP9210; assay: Inhibitory activity against Menin-MLL binding (fluorescence polarization); conditions: fluorescence polarization; 150 nM His-Menin, 15 nM FITC-MLL; 25°C for 60 min; read-out: Menin-MLL IC50
readoutType: IC50 (µM)

molecule="CCN(C(=O)c1cc(F)ccc1-c1cc(C2(O)CN(C[C@H]3CC[C@H](NC(=O)OC(C)(C)C)CC3)C2)cc2c1cnn2C)C(C)C [Example 79]" readouttype=IC50 observedmeasurement=0.279
molecule="COCC(=O)N1CCC(CN2CC(c3cc(-c4ccc(F)cc4C(=O)N4CCOC[C@H]4C)c4c(F)nc(C)n4c3)C2)CC1 [Example 241]" readouttype=IC50 observedmeasurement=0.0315

P. Cc1nc(F)c2c(-c3ccc(F)cc3C(=O)N3CCOC[C@H]3C)cc(C3CN(CC4(O)CCOCC4)C3)cn12 [Example 239]
Q. CCN(C(=O)c1cc(F)ccc1-c1cc(C2CCN(CC3CCCCC3)C2)cn2cncc12)C(C)C (stereo not drawn) [Example 44]
Prompt: Endpoint returns the identifier whose IC50 is numerically larger, either P or Q . Mark your selection by writing its label.
Completion: P

P. CO[C@H]1CCN(CCC[C@@H](C(C)C)N2CC(c3cc(-c4ccc(F)cc4C(=O)N4CCOC[C@H]4C)c4cnn(C)c4c3)C2)C1 [Example 184-1]
Q. Cc1nc(F)c2c(-c3ccc(F)cc3C(=O)N3CCOC[C@H]3C)cc(C3CN([C@@H](CC[C@H]4CNCCO4)C(C)C)C3)cn12 [Example 244-2]
Prompt: Lab note: record which item had the higher IC50, P or Q . Returns: label corresponding to the selected item.
Completion: P
(P: 0.805 µM, Q: 0.034 µM)
